# targetDesc: NPR-B (Mus musculus, UniProt Q6VVW5)
# Construct: Murine NIH3T3 cells express endogenously the CNP signaling receptor, NPR-B; endogenous in cells; host or cells: NIH3T3
# Sequence (Q6VVW5 17-1047): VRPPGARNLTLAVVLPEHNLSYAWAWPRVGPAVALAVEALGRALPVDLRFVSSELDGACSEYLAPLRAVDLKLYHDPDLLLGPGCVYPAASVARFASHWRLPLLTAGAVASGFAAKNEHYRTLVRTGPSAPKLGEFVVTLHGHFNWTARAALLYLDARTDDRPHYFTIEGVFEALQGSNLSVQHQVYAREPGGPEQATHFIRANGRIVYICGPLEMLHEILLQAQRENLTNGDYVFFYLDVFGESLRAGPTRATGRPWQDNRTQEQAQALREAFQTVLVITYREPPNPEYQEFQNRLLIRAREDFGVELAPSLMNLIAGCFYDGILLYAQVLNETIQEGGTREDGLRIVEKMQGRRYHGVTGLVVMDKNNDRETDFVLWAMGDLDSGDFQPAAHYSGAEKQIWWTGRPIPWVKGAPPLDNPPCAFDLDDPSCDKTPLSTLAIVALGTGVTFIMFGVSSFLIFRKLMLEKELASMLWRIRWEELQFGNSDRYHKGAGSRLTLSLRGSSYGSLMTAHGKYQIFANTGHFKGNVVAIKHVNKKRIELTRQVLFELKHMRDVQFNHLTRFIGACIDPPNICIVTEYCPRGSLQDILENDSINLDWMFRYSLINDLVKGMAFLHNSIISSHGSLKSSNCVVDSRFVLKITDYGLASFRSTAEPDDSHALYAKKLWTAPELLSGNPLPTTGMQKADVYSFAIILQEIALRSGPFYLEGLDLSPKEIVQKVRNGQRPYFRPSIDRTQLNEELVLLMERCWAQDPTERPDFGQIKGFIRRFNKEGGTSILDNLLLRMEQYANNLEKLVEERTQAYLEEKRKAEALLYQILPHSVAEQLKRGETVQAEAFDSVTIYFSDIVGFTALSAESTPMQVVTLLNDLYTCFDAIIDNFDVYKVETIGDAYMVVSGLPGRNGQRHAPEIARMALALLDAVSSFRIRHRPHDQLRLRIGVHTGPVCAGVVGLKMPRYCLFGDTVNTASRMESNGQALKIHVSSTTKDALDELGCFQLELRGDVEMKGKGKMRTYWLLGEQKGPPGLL
# protocolDescription: stimulation of cGMP production in NIH3T3 cells
# Format: cell-based, murine
# conditionDetails: NIH3T3 cells exposed to 1 uM peptide; normalized to cell number and cGMP production in the presence of 1 uM wtCNP22
# Experimental: To determine the functional activity of CNP variants, the production of cGMP was measured in NIH3T3 cells exposed to the CNP variants. […] Reactions were stopped by the addition of 0.2 mL lysis buffer supplied with the CatchPoint cGMP assay kit (Molecular Devices), and cGMP production was determined with the CatchPoint cGMP Assay (Molecular Devices). […]
measuredMetric: cGMP Response rel. to 1 uM CNP22, 1 uM
Write no unit; give the number alone.

Input line: I would be grateful if you could share the reported cGMP Response rel. to 1 uM CNP22, 1 uM for CC[C@H](C)[C@@H]1NC(=O)[C@H](CCCNC(=N)N)NC(=O)[C@H](CC(=O)O)NC(=O)[C@H](CC(C)C)N(C)C(=O)[C@H](CCCCN)NC(=O)[C@H](CC(C)C)N(C)C(=O)CNC(=O)[C@H](Cc2ccccc2)NC(=O)[C@@H](NC(=O)CNC(=O)[C@H](CCCCN)NC(=O)[C@H](CO)NC(=O)[C@H](CC(C)C)NC(=O)CN)CSSC[C@@H](C(=O)O)NC(=O)CNC(=O)[C@H](CC(C)C)NC(=O)CNC(=O)[C@H](CO)NC(=O)[C@H](CCSC)NC(=O)[C@H](CO)NC(=O)CNC1=O [Analog M, CNP22, N-methyl-L9, N-methyl-L11] .
Output line: 11
